# target of assay: human recombinant α4β2 nicotinic receptors (Homo sapiens, UniProt P17787+P43681)
# Sequence (P43681 29-627 limits assumed): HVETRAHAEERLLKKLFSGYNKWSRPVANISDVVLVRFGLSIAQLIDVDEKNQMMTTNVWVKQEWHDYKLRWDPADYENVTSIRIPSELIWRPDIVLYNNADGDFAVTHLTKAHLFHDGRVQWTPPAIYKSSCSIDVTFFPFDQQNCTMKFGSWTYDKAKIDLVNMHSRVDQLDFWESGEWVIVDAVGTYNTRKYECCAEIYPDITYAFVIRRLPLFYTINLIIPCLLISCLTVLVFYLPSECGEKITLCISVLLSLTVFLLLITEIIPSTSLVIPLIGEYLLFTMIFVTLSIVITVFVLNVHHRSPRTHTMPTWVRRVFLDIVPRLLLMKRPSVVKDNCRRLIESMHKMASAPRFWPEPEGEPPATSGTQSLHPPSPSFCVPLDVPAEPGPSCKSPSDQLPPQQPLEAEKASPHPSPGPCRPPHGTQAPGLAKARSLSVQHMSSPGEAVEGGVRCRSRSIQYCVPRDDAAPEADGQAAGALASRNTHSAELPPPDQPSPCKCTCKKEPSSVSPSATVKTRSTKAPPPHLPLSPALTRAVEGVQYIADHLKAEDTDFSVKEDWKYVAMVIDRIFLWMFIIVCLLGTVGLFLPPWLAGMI
# Sequence (P17787 26-502): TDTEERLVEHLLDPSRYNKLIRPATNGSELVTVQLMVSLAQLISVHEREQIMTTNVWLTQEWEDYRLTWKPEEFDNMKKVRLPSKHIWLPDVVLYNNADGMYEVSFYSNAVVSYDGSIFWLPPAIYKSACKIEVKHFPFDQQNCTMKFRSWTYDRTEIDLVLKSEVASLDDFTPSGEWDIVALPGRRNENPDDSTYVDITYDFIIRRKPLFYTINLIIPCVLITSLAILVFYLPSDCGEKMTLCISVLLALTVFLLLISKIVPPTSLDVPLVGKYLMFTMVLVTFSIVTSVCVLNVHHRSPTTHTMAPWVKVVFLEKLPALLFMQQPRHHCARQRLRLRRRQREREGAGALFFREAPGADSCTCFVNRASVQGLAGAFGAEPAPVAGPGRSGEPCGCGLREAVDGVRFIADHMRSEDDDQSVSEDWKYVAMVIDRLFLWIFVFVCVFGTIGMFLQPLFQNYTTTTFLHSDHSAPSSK
# assay method text: [3H]-nicotine radioligand binding, SH-EP1/human α4β2 membranes
# conditions used: read-out: inhibition of [3H]-nicotine binding to human recombinant α4β2 nicotinic receptors
# Experimental: Preparation of membranes from SH-EP1/human α4β2 clonal cells: Cell pellets from 40 150 mm culture dishes were pooled, and homogenized by Polytron (Kinematica GmbH, Switzerland) in 20 milliliters of ice-cold preparative buffer. […] On the day of the assay, the frozen membranes were thawed and spun at 48,000×g for 20 min. […] Protein concentrations were determined using a Pierce BCA Protein Assay Kit, with bovine serum albumin as the standard (Pierce Chemical Company, Rockford, Ill.). […]
pKi: −log10 of the molar value.
property: pKi

1) O=C(N[C@@H]1C2CCN(CC2)[C@H]1Cc1cccnc1)c1cc(F)cc(F)c1 [Compound A] :: 5.83
